# subject.of.test: FGFR3 (UniProt P22607)
# Sequence (P22607 whole entry, looked up): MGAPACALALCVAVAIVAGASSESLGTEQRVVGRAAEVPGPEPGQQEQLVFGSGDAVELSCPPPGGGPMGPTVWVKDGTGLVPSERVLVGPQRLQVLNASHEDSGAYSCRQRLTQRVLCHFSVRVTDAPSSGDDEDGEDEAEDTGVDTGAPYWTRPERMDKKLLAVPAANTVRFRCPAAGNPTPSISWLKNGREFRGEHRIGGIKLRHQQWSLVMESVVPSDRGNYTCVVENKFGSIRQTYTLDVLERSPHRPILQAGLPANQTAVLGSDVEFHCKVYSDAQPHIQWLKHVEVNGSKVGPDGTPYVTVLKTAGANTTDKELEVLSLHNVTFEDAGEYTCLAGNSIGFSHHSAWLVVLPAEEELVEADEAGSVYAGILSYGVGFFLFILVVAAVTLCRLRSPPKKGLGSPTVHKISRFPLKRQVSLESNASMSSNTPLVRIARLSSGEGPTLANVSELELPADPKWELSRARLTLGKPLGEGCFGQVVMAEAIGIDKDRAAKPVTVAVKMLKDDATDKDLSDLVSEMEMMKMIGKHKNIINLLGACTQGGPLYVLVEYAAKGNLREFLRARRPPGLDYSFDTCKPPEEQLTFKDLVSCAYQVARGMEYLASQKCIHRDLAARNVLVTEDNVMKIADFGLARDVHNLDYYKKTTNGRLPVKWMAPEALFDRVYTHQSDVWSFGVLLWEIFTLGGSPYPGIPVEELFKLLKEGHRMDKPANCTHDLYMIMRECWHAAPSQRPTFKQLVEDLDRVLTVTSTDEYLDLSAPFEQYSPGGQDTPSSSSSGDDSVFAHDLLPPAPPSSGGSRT
# experimental.details: phosphorylation enrichment, bacterial display (enrichment ratio); higher = better substrate or ligand; peptides without Tyr show the background
phosphorylation enrichment below 0.8 gives not met; phosphorylation enrichment at or above it gives met.

| sequence.input | class.name |
| --- | --- |
| NPQKSCFIRLY [WAS_Y83_Y83C] | not met |
| SVTCTYSPARN [TP53_Y126_L130R] | not met |
| FRDALYKFIVD [PHEX_Y250_M253I_YF] | not met |
| LDFNEYFRGLN [HPRT1_Y198_D201G_YF] | met |
| IRTIDYRFTVS [IDS_Y497_W502S_YF] | not met |

Could you now consider this next sequence?
Ask: Reported phosphorylation enrichment reaches at least 0.8 for AASTDYYKRGD [PDHA1_Y242] ?
Result: not met

====

# System: c-Src
# experimental.details: phosphorylation enrichment, bacterial display (enrichment ratio); higher = better substrate or ligand; peptides without Tyr show the background
Measured phosphorylation enrichment values are reported for all entries that follow.

| sequence.input | subject.of.test | phosphorylation enrichment |
| --- | --- | --- |
| SGRRRYTIAAL [TTR_Y125_P122R] | c-Src | 0.736 |
| LLVVLCKFRCF [PSEN1_Y154_Y154C_YF] | c-Src | 1.48 |
| DSYWSYCNAVA [SLC20A2_Y436_S434W] | c-Src | 4.44 |
| DAVCYYRMENA [NPHS2_Y195_I192V] | c-Src | 3.44 |
| SLAARYFNWVS [FLT4_Y1230_YF] | c-Src | 0.431 |
| HTVVSYAEVRA [CLOCK_Y378] | c-Src | 0.742 |
| ILQSMYGCDVG [HLA-B_Y123_T118I] | c-Src | 0.569 |
| CTTLHYNFMCN [TP53_Y234_I232L_YF] | c-Src | 0.538 |

Reported phosphorylation enrichment ( VDSGVYAVPPP [BCAR1_Y410] ) = 4.94

Reported phosphorylation enrichment ( IEPVIYVVQRR [ANOS1_Y217] ) = 0.356

Reported phosphorylation enrichment ( IGEGTYRQVFK [CDK13_Y716_G717R_YF] ) = 0.386

Reported phosphorylation enrichment ( HNVPIYEGFGL [ACTA1_Y168_A172G_YF] ) = 8.62

Reported phosphorylation enrichment ( EEQKKNFNAMK [SCN5A_Y1494_Y1494N_YF] ) = 0.385

====

Measured phosphorylation enrichment values are reported for all entries that follow.
# Test system: c-Abl (mouse)
# experimental.details: phosphorylation enrichment, bacterial display (enrichment ratio); higher = better substrate or ligand; peptides without Tyr show the background
// response body must contain only the number

Record TVSTRYTQPQP [SARG_Y259] / c-Abl (mouse), phosphorylation enrichment recorded as 0.576

Record ISRVLYPNDNF [PYGM_Y281] / c-Abl (mouse), phosphorylation enrichment recorded as 0.602

Record FNSLPYQVPTS [CALCOCO2_Y358] / c-Abl (mouse), phosphorylation enrichment recorded as 2.56

====

# Tested on: c-Abl (mouse)
# experimental.details: phosphorylation enrichment, bacterial display (enrichment ratio); higher = better substrate or ligand; peptides without Tyr show the background
Measured phosphorylation enrichment values are reported for all entries that follow.
// response body must contain only the number

Look over these answered cases.
| sequence.input | phosphorylation enrichment |
| --- | --- |
| FKEVVYQAMEE [TACC3_Y684_E680K] | 1.11 |
| APVEDYGGGGG [B4GALT6_Y382_I379V] | 0.481 |
| EDGCIYPATIA [SMN1_Y109] | 0.87 |
| DFLEKYFKFGC [NNMT_Y24_S29C_YF] | 0.768 |

Record GRSTYYWPRPR [GAGE12J_Y10] / c-Abl (mouse), phosphorylation enrichment recorded as 0.93

Record FETNVYVDKNL [PTCHD3_Y688_K685T] / c-Abl (mouse), phosphorylation enrichment recorded as 1.01

Record QQMGTYGVRAA [ICAM2_Y260_R256Q] / c-Abl (mouse), phosphorylation enrichment recorded as 0.442

Record IDPYTYTPFGS [CYP3A4_Y432_I431T] / c-Abl (mouse), phosphorylation enrichment recorded as 0.63

Record KLNNEHLELNY [MME_Y497_Y497H] / c-Abl (mouse), phosphorylation enrichment recorded as 0.58

Record PLLTDYSPQLQ [OTC_Y345_S340P] / c-Abl (mouse), phosphorylation enrichment recorded as 1.02

Record GTFVIYVRFGG [FLNB_Y1687_YF] / c-Abl (mouse), phosphorylation enrichment recorded as 0.854

Record DGQVNYEGFVQ [CALM1_Y139_E141G] / c-Abl (mouse), phosphorylation enrichment recorded as 1.19

Record IDPFTYTPFGS [CYP3A4_Y432_I431T_YF] / c-Abl (mouse), phosphorylation enrichment recorded as 0.581

Record HTDDGYMPMSP [IRS1_Y612] / c-Abl (mouse), phosphorylation enrichment recorded as 1.04

====

Measured SH2 binding enrichment values are reported for all entries that follow.
# subject.of.test: Grb2 SH2 (UniProt P62993)
# Sequence (P62993 whole entry, looked up): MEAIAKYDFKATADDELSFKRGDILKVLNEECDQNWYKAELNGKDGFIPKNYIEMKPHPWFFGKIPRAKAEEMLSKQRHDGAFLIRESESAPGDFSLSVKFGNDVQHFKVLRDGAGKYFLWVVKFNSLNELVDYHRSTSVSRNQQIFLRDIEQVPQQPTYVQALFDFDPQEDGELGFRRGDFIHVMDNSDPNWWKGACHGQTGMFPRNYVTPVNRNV
# experimental.details: SH2 binding enrichment of the phosphorylated peptide, bacterial display (enrichment ratio); higher = better substrate or ligand; peptides without Tyr show the background
// response body must contain only the number

| sequence.input | SH2 binding enrichment |
| --- | --- |
| GAAMLYFPSVS [GPR143_Y177_YF] | 0.871 |
| YDGKEYDPVEA [MAPRE2_Y167] | 0.912 |
| TVHCDYLNISH [TAF1L_Y1385_P1389S] | 1.17 |
| RFLKDYGEFEV [GINS1_Y156_C152Y_YF] | 1.26 |
| KMATAYIRSMS [BCO1_Y264_R267S] | 1.08 |
| SVTCTYSPALH [TP53_Y126_N131H] | 0.617 |
| RLPSGYGLAYR [DLK1_Y262] | 0.855 |
| NNRVFYGNSDR [RS1_Y177] | 0.852 |
| KTTILYKLKLG [ARF1_Y35] | 1.33 |
| VAVVQYSGMGQ [COL6A1_Y878_T881M] | 0.763 |

Record FQEKGYNKEPR [CHRND_Y38_L42P] / Grb2 SH2 (UniProt P62993), SH2 binding enrichment recorded as 1

Record FNSLPYQVPTS [CALCOCO2_Y358] / Grb2 SH2 (UniProt P62993), SH2 binding enrichment recorded as 1.12

Record ETELPYQELQG [TYROBP_Y91_S89L] / Grb2 SH2 (UniProt P62993), SH2 binding enrichment recorded as 0.727

Record FSLIHYASIVD [MYH7_Y582_G584S] / Grb2 SH2 (UniProt P62993), SH2 binding enrichment recorded as 1.08

Record CTTVHYNFMCN [TP53_Y234_I232V_YF] / Grb2 SH2 (UniProt P62993), SH2 binding enrichment recorded as 1.61

====

# subject.of.test: EPHB2 (UniProt P29323)
# Sequence (P29323 whole entry, looked up): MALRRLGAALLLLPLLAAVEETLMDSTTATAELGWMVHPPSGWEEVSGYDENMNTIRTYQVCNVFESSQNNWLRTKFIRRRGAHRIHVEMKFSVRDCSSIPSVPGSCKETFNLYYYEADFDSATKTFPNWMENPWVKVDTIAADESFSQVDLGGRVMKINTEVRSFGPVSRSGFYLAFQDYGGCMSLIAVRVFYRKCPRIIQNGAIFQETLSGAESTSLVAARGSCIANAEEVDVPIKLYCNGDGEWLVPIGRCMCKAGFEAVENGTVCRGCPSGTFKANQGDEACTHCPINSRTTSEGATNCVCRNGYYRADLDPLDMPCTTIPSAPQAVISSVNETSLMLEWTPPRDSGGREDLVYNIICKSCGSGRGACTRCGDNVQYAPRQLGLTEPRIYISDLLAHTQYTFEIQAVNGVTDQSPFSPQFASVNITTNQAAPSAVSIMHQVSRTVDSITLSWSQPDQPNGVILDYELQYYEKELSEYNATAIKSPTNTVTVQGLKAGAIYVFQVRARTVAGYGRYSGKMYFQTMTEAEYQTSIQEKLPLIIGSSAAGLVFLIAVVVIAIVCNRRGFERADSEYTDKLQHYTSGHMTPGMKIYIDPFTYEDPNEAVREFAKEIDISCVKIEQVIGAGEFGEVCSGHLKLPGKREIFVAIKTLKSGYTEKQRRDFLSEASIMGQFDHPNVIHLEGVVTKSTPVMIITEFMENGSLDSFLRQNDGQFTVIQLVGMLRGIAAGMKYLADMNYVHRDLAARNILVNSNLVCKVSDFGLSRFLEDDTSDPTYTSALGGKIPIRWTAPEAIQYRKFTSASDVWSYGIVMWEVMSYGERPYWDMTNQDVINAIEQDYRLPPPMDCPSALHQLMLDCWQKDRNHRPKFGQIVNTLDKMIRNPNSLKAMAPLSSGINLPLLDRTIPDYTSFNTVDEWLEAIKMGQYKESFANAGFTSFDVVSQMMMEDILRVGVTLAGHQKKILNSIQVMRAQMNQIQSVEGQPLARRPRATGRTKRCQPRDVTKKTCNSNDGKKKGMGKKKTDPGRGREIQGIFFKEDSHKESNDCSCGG
# experimental.details: phosphorylation enrichment, bacterial display (enrichment ratio); higher = better substrate or ligand; peptides without Tyr show the background
phosphorylation enrichment below 0.6 gives no; phosphorylation enrichment at or above it gives yes.

These recorded examples may help you get a feel for the data.
| sequence.input | class.name |
| --- | --- |
| FGAHNHHPLPV [OAT_Y55_Y55H_YF] | no |
| LMLVLYGRIFL [HTR1A_Y215_R220L] | yes |
| IKSSIYDNRKE [ARAP2_Y380] | no |
| AASTDYYKRGD [PDHA1_Y242] | no |

Ask: Reported phosphorylation enrichment reaches at least 0.6 for PYGQWYESHYA [RPS8_Y113_R110G] ?
Result: yes

Ask: Reported phosphorylation enrichment reaches at least 0.6 for VSFGEYRFRSV [CFTR_Y515_D513G_YF] ?
Result: no

Ask: Reported phosphorylation enrichment reaches at least 0.6 for YLEEEYVKAVG [TF_Y674_G671E] ?
Result: yes

Ask: Reported phosphorylation enrichment reaches at least 0.6 for VSSPKYGGDDE [TMCC2_Y473_S475G] ?
Result: no

Ask: Reported phosphorylation enrichment reaches at least 0.6 for HFGCIYHGTLL [MET_Y1093_V1092I] ?
Result: yes

Ask: Reported phosphorylation enrichment reaches at least 0.6 for FKDFFYCWNTF [AICDA_Y146_YF] ?
Result: yes

Ask: Reported phosphorylation enrichment reaches at least 0.6 for FGGLRYGFGGL [KRTAP20-2_Y13_V17G_YF] ?
Result: no

Ask: Reported phosphorylation enrichment reaches at least 0.6 for GLRFGYGGLGG [KRTAP20-2_Y15_V17G_YF] ?
Result: no

Ask: Reported phosphorylation enrichment reaches at least 0.6 for ISNATYKQIGL [FLT1_Y199_E201Q] ?
Result: no
